Experiment: Displacement of [3H]DTG from sigma 2 receptor in rat liver membranes
Type: cell membranes, Membrane
quantity-name: pKi
Friendly reminder that pKi comes from taking -log10 of the concentration in mol/L.

Name the recorded pKi for CCC(=O)c1ccc2c(c1)sc(=O)n2CCCCN1CCCCCC1 .
7.52

Follow-up entry: CCC(=O)c1ccc2c(c1)sc(=O)n2CCN1CCCCCC1
5.66

Also CCCC(=O)c1ccc2c(c1)sc(=O)n2CCCCN1CCCCCC1 , if possible.
7.67

Same read-out for CCCCc1ccc2c(c1)sc(=O)n2CCCCCCN1CCCCCC1 ?
8.39

// query: CCC(=O)c1ccc2c(c1)sc(=O)n2CCCN1CCCCCC1
6.52

Also check CCC(=O)c1ccc2c(c1)sc(=O)n2CCN1CCCC1
5.32

Repeat with CCCc1ccc2c(c1)sc(=O)n2CCCCCN1CCCCCC1
8.80

Subsequent entry: CCCC(=O)c1ccc2c(c1)sc(=O)n2CCCN1CCCCCC1
6.98

And the next one, O=c1sc2ccccc2n1CCCCCN1CCCCCC1 ?
8.60

Moving on to CCCc1ccc2c(c1)sc(=O)n2CCCCCCN1CCCCCC1
8.64

// same read-out, input: CCCc1ccc2c(c1)sc(=O)n2CCCCN1CCCCCC1
8.37

How about this molecule: O=c1sc2ccccc2n1CCCCCCN1CCCCCC1
8.62

Item: O=c1sc2ccccc2n1CCN1CCCCCCC1
6.15

And the next one, CCCc1ccc2c(c1)sc(=O)n2CCCN1CCCCCC1 ?
7.76

Would you kindly repeat that for CCCC(=O)c1ccc2c(c1)sc(=O)n2CCCCCN1CCCCCC1 ?
8.24

Repeat with CCCC(=O)c1ccc2c(c1)sc(=O)n2CCCCCCN1CCCCCC1
8.64

For CCC(=O)c1ccc2c(c1)sc(=O)n2CCCCCN1CCCCCC1 then?
8.08

Subsequent entry: CCCCc1ccc2c(c1)sc(=O)n2CCCCN1CCCCCC1
8.36

Repeat with O=c1sc2ccccc2n1CCCCN1CCCCCC1
7.00

Input CCC(=O)c1ccc2c(c1)sc(=O)n2CCCCCCN1CCCCCC1
8.96

Now try O=c1sc2ccccc2n1CCCN1CCCCCC1 .
6.75

Ok, now CCCc1ccc2c(c1)sc(=O)n2CCN1CCCCCC1
6.57

Would you kindly repeat that for O=c1sc2ccccc2n1CCN1CCCC1 ?
5.08

Please do the same for CCCCc1ccc2c(c1)sc(=O)n2CCCN1CCCCCC1 as well.
7.82
